Biological target: human TRPV1 (Homo sapiens)
Construct: expressed in transfected cells
Assay: Acid Activation Assay (pH 5.0, FLIPR intracellular Ca2+, recombinant HEK293 cells)
Type: cell-based
Conditions: percentage of maximal pH 5.0-induced response remaining; HEK293 hTRPV1; max concentration 37.5 μM
readout-name: human TRPV1 H+ (max % remain)
Param answer (str): number followed by unit.

CCC1(CC)C[C@@H](NC(=O)Nc2cccc3c2C[C@H](O)C3)c2ccc(F)cc2O1 [Example 52] :: 73%

q: Please report human TRPV1 H+ (max % remain) for the following compound: O=C(Nc1cccc2c1C[C@H](O)C2)N[C@@H]1CC(CF)(CF)Oc2cc(C(F)(F)F)ccc21 [Example 7]
a: 48%

q: Answer with reported human TRPV1 H+ (max % remain) of CCC1(CC)C[C@@H](NC(=O)Nc2cccc3c2C[C@H](O)C3)c2ccccc2O1 [Example 49]
a: 75%

q: Given O=C(Nc1cccc2c1C[C@H](O)C2)N[C@@H]1CCOc2c(OC(F)(F)F)cccc21 [Example 6] , respond with its human TRPV1 H+ (max % remain).
a: 67%

====

Target: human TRPV1 (Homo sapiens)
Construct: expressed in transfected cells
Assay: Acid Activation Assay (pH 5.0, FLIPR intracellular Ca2+, recombinant HEK293 cells)
Assay type: cell-based
Details: percentage of maximal pH 5.0-induced response remaining; HEK293 hTRPV1; max concentration 37.5 μM
Classify: TRUE when human TRPV1 H+ (max % remain) is strictly less than 40%; FALSE when human TRPV1 H+ (max % remain) is not.

O=C(Nc1ccc(F)c2c1C[C@H](O)C2)N[C@@H]1CC2(CCC2)Oc2ccc(F)cc21 :: TRUE
O=C(Nc1cccc2c1C[C@@H](O)C2)N[C@@H]1CC(CF)(CF)Oc2ccc(F)cc21 :: TRUE
O=C(Nc1cccc2c1CC(O)C2)NC1CC(c2ccc(C(F)(F)F)cc2)Oc2ccccc21 (centres unmarked) :: FALSE
CCC1(CC)C[C@@H](NC(=O)Nc2cccc3c2C[C@H](O)C3)c2ccc(C(F)(F)F)cc2O1 :: TRUE
O=C(Nc1cccc2c1C[C@H](O)C2)N[C@@H]1CCOc2ccccc21 :: FALSE

q: # strict comparison: is reported human TRPV1 H+ (max % remain) < 40%? input = CCCC1(CCC)C[C@@H](NC(=O)Nc2cccc3c2C[C@H](O)C3)c2cccc(F)c2O1
a: FALSE

q: Please let me know if COCC1(COC)C[C@@H](NC(=O)Nc2cccc3c2C[C@H](O)C3)c2cc(F)ccc2O1 shows human TRPV1 H+ (max % remain) below 40%.
a: FALSE

q: Please state whether human TRPV1 H+ (max % remain) is below 40% for CC1(C)C[C@@H](NC(=O)Nc2cccc3c2C[C@H](O)C3)c2ccc(F)cc2O1
a: FALSE

====

Target: human TRPV1 (Homo sapiens, UniProt Q8NER1)
Construct: expressed in transfected cells
Sequence (Q8NER1 whole entry): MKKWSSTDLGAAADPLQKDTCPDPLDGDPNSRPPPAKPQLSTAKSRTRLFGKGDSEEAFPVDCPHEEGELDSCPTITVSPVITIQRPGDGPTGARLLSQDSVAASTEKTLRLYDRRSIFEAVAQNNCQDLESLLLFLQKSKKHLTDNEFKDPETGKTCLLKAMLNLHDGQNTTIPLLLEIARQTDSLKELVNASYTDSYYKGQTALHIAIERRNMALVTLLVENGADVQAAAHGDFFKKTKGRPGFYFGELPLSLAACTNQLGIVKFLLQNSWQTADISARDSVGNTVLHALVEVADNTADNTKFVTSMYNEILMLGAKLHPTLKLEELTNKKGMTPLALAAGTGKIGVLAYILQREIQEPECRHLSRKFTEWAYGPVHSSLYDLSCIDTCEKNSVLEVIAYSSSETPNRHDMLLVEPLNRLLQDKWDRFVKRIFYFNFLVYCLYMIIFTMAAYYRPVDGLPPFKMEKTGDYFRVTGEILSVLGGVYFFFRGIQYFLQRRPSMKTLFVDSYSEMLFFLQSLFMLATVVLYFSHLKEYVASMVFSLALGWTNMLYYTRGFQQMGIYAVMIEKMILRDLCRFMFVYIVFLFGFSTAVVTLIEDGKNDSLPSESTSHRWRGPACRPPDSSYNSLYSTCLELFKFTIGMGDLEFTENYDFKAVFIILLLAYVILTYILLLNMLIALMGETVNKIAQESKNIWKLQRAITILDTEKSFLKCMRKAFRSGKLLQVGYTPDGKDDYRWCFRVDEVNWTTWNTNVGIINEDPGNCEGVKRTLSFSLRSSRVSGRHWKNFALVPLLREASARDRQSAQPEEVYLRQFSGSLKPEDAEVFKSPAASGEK
Assay: Acid Activation Assay (pH 5.0, FLIPR intracellular Ca2+, recombinant HEK293 cells)
Assay type: cell-based
Settings: percentage of maximal pH 5.0-induced response remaining; HEK293 hTRPV1; max concentration 37.5 μM
readout-name: human TRPV1 H+ (max % remain) (%)
Please state the figure in %; there is no need to write the unit.

CC1(C)C[C@@H](NC(=O)Nc2ccc(F)c3c2C[C@@H](O)C3)c2ccc(Cl)cc2O1 :: 51
O=C(Nc1cccc2c1C[C@H](O)C2)N[C@@H]1COc2ccc(Cl)cc2C1 :: 11
O=C(Nc1cccc2c1CC(O)C2)NC1c2ccccc2CC1Cc1ccccc1 (stereo not shown) :: 83

q: Please indicate human TRPV1 H+ (max % remain) recorded for O=C(Nc1cccc2c1C[C@H](O)C2)N[C@@H]1CC(CF)(CF)Oc2ccccc21
a: 91

q: Look up and state reported human TRPV1 H+ (max % remain) for CC1(C)C[C@@H](NC(=O)Nc2cccc3c2C[C@@H](O)C3)c2ccc(F)cc2O1
a: 33

q: Please report human TRPV1 H+ (max % remain) for the following compound: C[C@]1(C(F)F)C[C@@H](NC(=O)Nc2cccc3c2C[C@H](O)C3)c2ccc(Cl)cc2O1
a: 51

q: Hello, please tell me recorded human TRPV1 H+ (max % remain) for this one: CC1(C)C[C@@H](NC(=O)Nc2ccc(F)c3c2C[C@@H](O)C3)c2ccc(C(F)(F)F)cc2O1
a: 61

q: Given the compound CC1(C)C[C@@H](NC(=O)Nc2cccc3c2C[C@H](O)C3)c2cccc(OC(F)(F)F)c2O1 , write its reported human TRPV1 H+ (max % remain).
a: 71

q: State, in one line, measured human TRPV1 H+ (max % remain) of CC1(C)C[C@@H](NC(=O)Nc2cccc3c2C[C@@H](O)C3)c2ccc(C(F)(F)F)cc2O1
a: 1

q: Retrieve human TRPV1 H+ (max % remain) measured for Cc1cccnc1N1CC=C(C(=O)Nc2ccc(S(=O)(=O)C(F)(F)F)cc2)CC1 [E, reference compound] and print it.
a: 2

q: Using the record for O=C(Nc1cccc2c1CC(O)C2)NC1c2ccccc2OCC1c1ccccc1 (stereo not shown) , state its measured human TRPV1 H+ (max % remain).
a: 97

q: Answer with the recorded human TRPV1 H+ (max % remain) for the compound listed here: O=C(Nc1cccc2c1C[C@H](O)C2)N[C@@H]1CC(CF)(CF)Oc2cc(Br)ccc21
a: 58

q: Specify measured human TRPV1 H+ (max % remain) for C[C@]1(CF)C[C@@H](NC(=O)Nc2ccc3c(c2)C(O)C3)c2ccccc2O1 (stereo partly shown) .
a: 95

q: Indicate the recorded human TRPV1 H+ (max % remain) value for this compound: O=C(Nc1ccc(F)c2c1C[C@H](O)C2)N[C@@H]1CC(CF)(CF)Oc2c1ccc(Cl)c2F
a: 2

q: Provide human TRPV1 H+ (max % remain) value for the following compound: CC1(C)C[C@@H](NC(=O)Nc2cccc3c2C[C@@H](O)C3)c2cccc(F)c2O1
a: 52

q: Indicate the recorded human TRPV1 H+ (max % remain) value for this compound: O=C(Nc1cccc2c1C[C@H](O)C2)N[C@@H]1CCOc2c(F)cc(F)cc21
a: 90
